These data points were gathered from patent US8420122B2.

# Assay protocol: Comparative PK Results-2: Day 5 multiple-dose pharmacokinetics
# Type: in vivo, human
# Assay setup: human, plasma, oral, 1200 mg, 1200 mg TID, Day 5, healthy subjects, n = 35; read-out: AUC(τ), mean
Readout kind: AUC (ng·h/mL)

molecule="CC(C)(C)NC(=O)NC(C(=O)N1CC2C([C@H]1C(=O)NC(CC1CCC1)C(=O)C(N)=O)C2(C)C)C(C)(C)C (stereo partly shown) [compound of Formula B]" unit_name=ng·h/mL value_reported=6500

* * *

# Assay protocol: Comparative PK Results-2: Day 5 multiple-dose pharmacokinetics
# Format: in vivo, human
# Assay setup: human, plasma, oral; 1200 mg TID, Day 5, healthy subjects, n = 35; read-out: Tmax, median
Readout kind: Tmax (h)

molecule="CC(C)(C)NC(=O)NC(C(=O)N1CC2C([C@H]1C(=O)NC(CC1CCC1)C(=O)C(N)=O)C2(C)C)C(C)(C)C (stereo partly shown)" readout_kind=Tmax unit_name=h value_reported=2

* * *

# Assay protocol: Comparative PK Results-2: Day 5 multiple-dose pharmacokinetics
# Assay type: in vivo, human
# Assay setup: human, plasma, oral; 1200 mg TID, Day 5, healthy subjects, n = 35; read-out: t1/2, mean (converted)
Readout kind: half-life (h)

compound="CC(C)(C)NC(=O)NC(C(=O)N1CC2C([C@H]1C(=O)NC(CC1CCC1)C(=O)C(N)=O)C2(C)C)C(C)(C)C (stereo partly shown) [compound of Formula B]" readout_kind=half-life value_reported=3.01

* * *

# Assay protocol: Comparative PK Results-2: Day 5 multiple-dose pharmacokinetics
# Assay type: in vivo, human
# Assay setup: human, plasma, oral; 1200 mg TID, Day 5, healthy subjects, n = 35; read-out: Cmin, mean
Readout kind: concentration at 5 day (ng/mL)

compound="CC(C)(C)NC(=O)NC(C(=O)N1CC2C([C@H]1C(=O)NC(CC1CCC1)C(=O)C(N)=O)C2(C)C)C(C)(C)C (stereo partly shown) [compound of Formula B]" value_reported=79.9

* * *

# Assay protocol: Comparative PK Results-2: Day 5 multiple-dose pharmacokinetics
# Assay type: in vivo, human
# Assay setup: human, plasma, oral, 800 mg, 800 mg TID, Day 5, healthy subjects, n = 31; sum of diastereomers; read-out: Cmax, mean
Readout kind: Cmax (ng/mL)

molecule="CC(C)(C)NC(=O)NC(C(=O)N1CC2C([C@H]1C(=O)NC(CC1CCC1)C(=O)C(N)=O)C2(C)C)C(C)(C)C (stereo partly shown) [compound of Formula B]" value_reported=1690

* * *

# Assay protocol: Comparative PK Results-2: Day 5 multiple-dose pharmacokinetics
# Format: in vivo, human
# Assay setup: human, plasma, oral, 800 mg, 800 mg TID, Day 5, healthy subjects, n = 31; read-out: AUC(τ), mean
Readout kind: AUC (µg·h/mL)

compound="CC(C)(C)NC(=O)NC(C(=O)N1CC2C([C@H]1C(=O)NC(CC1CCC1)C(=O)C(N)=O)C2(C)C)C(C)(C)C (stereo partly shown) [compound of Formula B]" readout_kind=AUC value_reported=5.32

* * *

# Assay protocol: Comparative PK Results-2: Day 5 multiple-dose pharmacokinetics
# Assay type: in vivo, human
# Assay setup: human, plasma, oral; 1200 mg TID, Day 5, healthy subjects, n = 35
Readout kind: Vd/F (L)

compound="CC(C)(C)NC(=O)NC(C(=O)N1CC2C([C@H]1C(=O)NC(CC1CCC1)C(=O)C(N)=O)C2(C)C)C(C)(C)C (stereo partly shown)" value_reported=879
